Every entry's value here was drawn from PubChem BioAssay (NCI).

System: PC-3 prostate
Assay Remarks: NCI-60 one-dose screen, 48 h (100 = growth as untreated, 0 = no growth, -100 = all killed)
Condition: 10 µM unless noted
About 83,000 compounds went through this panel and 20% of them were active in at least one assay; those are over-represented in the sample as a whole.
Provide the recorded growth for the entries that follow.
Report only the number, with the unit % understood.

What growth value was documented for this molecule, `CCCOC(=O)c1c(C)n(C)c2scc[n+]12` ?
75.6

What growth value was documented for this molecule, `Clc1ccc(I)c2ccccc12` ?
102

What growth value was documented for this molecule, CC([C@H]1CC=C2C3CCC4=C[C@@H](N(C)C)CC[C@]4(C)C3CC[C@@]21C)N(C)C (stereo partly specified) ?
42.3

What growth value was documented for this molecule, COC(=O)/C=C1/CCCCC1(C)C(=O)OC (stereo unspecified) ?
102

What growth value was documented for this molecule, `CCCCN(CCC)CCCCCCCCCCN1CCCc2ccccc21` ?
45.8

What growth value was documented for this molecule, `COc1cc(/C=C/C(=O)/C=C(/C=C/c2ccc(OC(C)=O)c(OC)c2)OB(F)F)ccc1OC(C)=O` ?
63

What growth value was documented for this molecule, `COc1ccc(/C=C(/C(=O)N2CCCCC2)c2cc(OC)c(OC)c(OC)c2)cc1` ?
12.4

What growth value was documented for this molecule, `O=C(/C=C\c1ccccc1Cl)c1ccccc1` ?
93.8

What growth value was documented for this molecule, `Oc1ccccc1/C=N/N=C\c1ccccc1Cl` ?
88.1

What growth value was documented for this molecule, `COC(=O)c1ccc2[nH]c(O)c(C(=Nc3ccc(N(C)C(=O)CN4CCN(C)CC4)cc3)c3ccc(CCO)cc3)c2c1` ?
56.4

What growth value was documented for this molecule, `O=C(Nc1cccc(Cn2c(=O)[nH]c3ccc(Oc4ncccn4)cc3c2=O)c1)c1cc(Cl)cc(Cl)c1` ?
64.5

###

System: NCI-H226 lung
Assay Remarks: NCI-60 one-dose screen, 48 h (100 = growth as untreated, 0 = no growth, -100 = all killed)
Condition: 10 µM unless noted
This is part of a sample that, as a whole, favours compounds with a hit. Of some 83,000 tested, about 20% had one in any assay.
Measurement Name: growth (%)
Report only the number, with the unit % understood.

What growth value was documented for this molecule, `O=C(/C=C1\C(=O)N(Cc2ccc([N+](=O)[O-])cc2)c2ccccc21)c1ccc(OCCN2CCCCC2)cc1` ?
-41.1

What growth value was documented for this molecule, `COc1cc(N)c2nccc(C)c2c1OC` ?
101

What growth value was documented for this molecule, C=C[C@]1(C)C=C2C(=O)[C@@]3(O)OC[C@@]4(CCCC(C)(C)C43O)C2(O)C(O)C1 (stereo not given in full) ?
81.4

What growth value was documented for this molecule, `Cc1ccc(C(=O)Nc2ccc(CN3CCN(C)CC3)c(C(F)(F)F)c2)cc1C#Cc1cnc(N)c2ccc(C#N)cc12` ?
54.4

What growth value was documented for this molecule, `CCCCCCC(C(=O)OCC)(C(=O)OCC)C1CCCCCC1` ?
99.6

###

Provide the recorded growth for the entries that follow.
Test system: SW-620 colon
Assay Remarks: NCI-60 one-dose screen, 48 h (100 = growth as untreated, 0 = no growth, -100 = all killed)
Condition: 10 µM unless noted
The panel holds about 83,000 compounds, 20% with a hit somewhere; the sample as a whole holds those more often.
Report only the number, with the unit % understood.

What growth value was documented for this compound, `COc1ccc(-c2nc(SCC(C)C)nc(Nc3ccc(C)cc3)c2C#N)cc1` ?
54.4

What growth value was documented for this compound, `CC[n+]1c(C)ccc2cc(C)ccc21` ?
99.5

What growth value was documented for this compound, `Cc1nnc(/N=C2\NC(=O)/C(=C/C=C/c3ccccc3)S2)s1` ?
74.1

What growth value was documented for this compound, `COC(=O)Nc1nc2ccc(C(=O)c3ccccc3N(C)C3COC3)cc2[nH]1` ?
14.9

What growth value was documented for this compound, CCCCCCCCCC(C)NC(=O)CCl (stereo unspecified) ?
103

What growth value was documented for this compound, `COc1ccc(Cn2cc3c(c2-c2ccc(OC)cc2)CCc2cnoc2-3)cc1` ?
22.6

###

Test system: MOLT-4 leukemia
Assay Remarks: NCI-60 one-dose screen, 48 h
Condition: 10 µM unless noted
Method: Growth inhibition of the MOLT-4 human tumor cell line is measured as a screen for anti-cancer activity. Cells are grown in 96 well plates and exposed to the test compound for 48 hours. Compounds are tested at a single concentration, which is 10^-5 M for most compounds. The reported endpoint is percent growth (GI% or GIPRCNT), where numbers from 0 - 100% represent growth inhibition, and numbers from -100% - 0 represent cell death. For example, a value of 40 represents 60% growth inhibition. […]
Compounds without any hit were thinned out: in the full panel of roughly 83,000, 20% have a hit. The source made the active and inactive calls. Rule for the calls: active = growth percent below 10; inactive = the rest.
Log the outcome using a class from 1 (active), 0 (inactive)

Could you kindly confirm the outcome this assay logged for `O=C(/C(Br)=C/c1ccccc1)c1ccccc1` ?
1

Could you kindly confirm the outcome this assay logged for `[N-]=[N+]=Nc1ncc(-c2ccc(C(F)(F)F)cc2)c(NC2CCCCCC2)n1` ?
0

Could you kindly confirm the outcome this assay logged for `COc1cc(/C=C/C(=O)/C=C(/C=C/c2ccc(OC(C)=O)c(OC)c2)OB(F)F)ccc1OC(C)=O` ?
1

Could you kindly confirm the outcome this assay logged for `C=C(C)[C@@H]1CC[C@]2(COC(=O)c3ccccc3C(=O)O)CC[C@]3(C)[C@H](CC[C@@H]4[C@@]5(C)CCCNC(C)(C)[C@@H]5CC[C@]43C)[C@@H]12` ?
1

Could you kindly confirm the outcome this assay logged for `O=C(Nc1ccc(Cl)c(Cl)c1)O/N=C\c1c(Cl)ccc([N+](=O)[O-])c1Cl` ?
1

Could you kindly confirm the outcome this assay logged for COC(c1ccccc1)C(Br)C(=O)c1ccccc1 (centres undefined) ?
0

Could you kindly confirm the outcome this assay logged for `Nc1nc(-c2cccc(Br)c2)cc(-c2cc3ccccc3oc2=O)n1` ?
0

Could you kindly confirm the outcome this assay logged for `S=C(N/N=C/c1cc(Cl)cc(Cl)c1)NC12CC3CC(CC(C3)C1)C2` ?
0

Could you kindly confirm the outcome this assay logged for `N=C(N)c1ccc(-c2ccc(-c3ccc(Cl)cc3)s2)s1` ?
1

###

System: NCI-H460 lung
Assay Remarks: NCI-60 one-dose screen, 48 h
Condition: 10 µM unless noted
This is part of a sample that, as a whole, favours compounds with a hit. Of some 83,000 tested, about 20% had one in any assay. The source made the active and inactive calls. Rule for the calls: active = growth percent below 10; inactive = the rest.
Log the outcome using a class from label 1 for active, label 0 for inactive

Could you kindly confirm the outcome this assay logged for Cc1ccc(C(=O)C(Br)C(Br)c2ccccc2)cc1 (configuration not stated) ?
label 0

Could you kindly confirm the outcome this assay logged for `Cc1ccc(OCCn2ccc(=O)n(CCOc3ccc(Cl)cc3C(=O)c3cc(C)cc(C)c3)c2=O)cc1` ?
label 0

Could you kindly confirm the outcome this assay logged for `COc1nc(OC)nc(-c2cc(C(=O)c3ccc(Br)cc3)n3cc(C)cc(C)c23)n1` ?
label 0

Could you kindly confirm the outcome this assay logged for COc1ccc(/C=C2\CCCC3=C2N=C2SC=NN2C3c2ccc(OC)c(OC)c2)cc1OC (configuration not stated) ?
label 0

Could you kindly confirm the outcome this assay logged for CCC(C)CC(N)O (configuration not stated) ?
label 0

Could you kindly confirm the outcome this assay logged for `CC(C)C(=O)c1ccc(Cl)s1` ?
label 0

Could you kindly confirm the outcome this assay logged for `O=C(Nc1ccc(-n2cc(-c3ccncc3)c(-c3ccc(Cl)c(O)c3)n2)cc1)Nc1ccc(Cl)c(C(F)(F)F)c1` ?
label 1

Could you kindly confirm the outcome this assay logged for `NC(=O)c1c(Nc2ccccc2)nn2cc(-c3nc4ccccc4s3)c(N)nc12` ?
label 0

Could you kindly confirm the outcome this assay logged for `[N-]=[N+]=Nc1ncc(-c2ccc(C(F)(F)F)cc2)c(NC2CCCCCC2)n1` ?
label 0

Could you kindly confirm the outcome this assay logged for `O=C(Cc1ccccc1[N+](=O)[O-])c1ccc2c(c1)OCO2` ?
label 0

Could you kindly confirm the outcome this assay logged for `N=C(N)N=Nc1ccc(NN=C(N)N)cc1` ?
label 0

Could you kindly confirm the outcome this assay logged for `COc1cc(-c2nn(-c3ccc(NC(=O)Nc4ccc(Cl)c(Cl)c4)cc3)cc2-c2ccncc2)ccc1Cl` ?
label 1

Could you kindly confirm the outcome this assay logged for `O=C(Nc1ccc(Cl)cn1)C1(c2ccccc2)CCCCC1` ?
label 0

Could you kindly confirm the outcome this assay logged for CCCCCCCCCCC1OC(C)CC(C)O1 (configuration not stated) ?
label 0

Could you kindly confirm the outcome this assay logged for `C=C(C)C(C(=O)OCC)(C(=O)OCC)C(C)C` ?
label 0

Could you kindly confirm the outcome this assay logged for `CCc1ccc(C(=Nc2ccc(N(C)C(=O)CN3CCN(C)CC3)cc2)c2c(O)[nH]c3ccc(C(=O)OC)cc23)cc1` ?
label 1

Could you kindly confirm the outcome this assay logged for `c1ccc(Nc2ncc3c(n2)-c2cccn2CC3)cc1` ?
label 0

Could you kindly confirm the outcome this assay logged for `Cc1ccc(C(C)C)c(OCc2ccc(C(=O)N/N=C/c3cccc(O)c3O)cc2)c1` ?
label 0

Could you kindly confirm the outcome this assay logged for `O=C(Nc1ccc(-n2cc(-c3ccncc3)c(-c3ccc(Cl)c(O)c3)n2)cc1)c1ccc(Cl)c(C(F)(F)F)c1` ?
label 1

Could you kindly confirm the outcome this assay logged for CC1(C)CC(=O)C2=C(C1)Oc1nc(N)c(C#N)c(N)c1C2c1ccc(F)cc1 (configuration not stated) ?
label 0

Could you kindly confirm the outcome this assay logged for `CC(=O)Nc1nc(C)c(C(=O)NNS(=O)(=O)c2ccccc2)s1` ?
label 0

Could you kindly confirm the outcome this assay logged for `COc1ccc(Cn2cc3c(c2-c2ccccc2)CCc2cnoc2-3)cc1N` ?
label 1
